test: Plasma concentration versus time of Compound I and metabolite Compound III in patients dosed QD or BID with Form B of Compound II plus fulvestrant; type: in vivo, human; settings: human, plasma, oral, 500 mg, Cohort 4, 500 mg QD of Form B, Day 29, 1.0 h; read-out: Compound III Concentration, Min
Readout Label: concentration at 1 h (ng/mL)
Answers are plain numbers, in ng/mL.

Lab book: concentration at 1 h of O=C1NCC2(CCCCC2)n2c1cc1cnc(Nc3ccc(N4CCNCC4)cn3)nc12 [Compound III] noted as 2.06

----------
experiment: Plasma concentration versus time of Compound I and metabolite Compound III in patients dosed QD or BID with Form B of Compound II plus fulvestrant; type: in vivo, human; details: human, plasma, oral, 650 mg, Cohort 5, 650 mg QD of Form B, Day 29, 6.0 h; read-out: Compound III Concentration, Median
Readout Label: concentration at 6 h (ng/mL)
Give bare numbers, in ng/mL.

Lab book: concentration at 6 h of "O=C1NCC2(CCCCC2)n2c1cc1cnc(Nc3ccc(N4CCNCC4)cn3)nc12" noted as 7.57
